This section presents binders with their documented fold over background values.
Target: T1, SARS-CoV-2 Spike S1 domain A222S, D614G (SARS-CoV-2, UniProt P0DTC2 16-685)
T1 construct: domain: S1; also called Spanish (A222S, D614G)
Assay: HTRF, soluble S1 construct
Express the result in fold over background but write the number alone.

Reference set, count: 2
PR194_00232 (antibody, V domains shown, also called IMM20190; PR194_00190) VH: EVQLVESGGGLVQPGGSLRLSCSASGFTVSSNYMSWVRQAPRKGLEWVSVIYAGGSTFYADSVKGRFTISRDNSKNTLLLQMNSLRAEDTAVYYCARDRGGYLDYWGQGTLVTVSS VL: DIQMTQSPSSLSASVGDRVTITCRASQGISNYLAWYQQKPGKVPKLLIYAASTLQSGVPSRFSGSGSGTDFTLTISSLQPEDVATYYCQKYNSAPGLTFGGGTKVEIK; 8.47
PR199_00255 (antibody, V domains shown, also called IMM20279; PR190_00255) VH: QVQLVESGGGVVQPGRSLRLSCAASGFTFSTYGMHWVRQAPGKGLEWVAVIWYNGINKHYADSVKGRFTISRDNSKNTLYLQMSSLRVEDTAVYYCARDWGTLTTLFDFWGQGTLVTVSS VL: DIQMTQSPSSLSASVGERATITCRASQSISSHLNWYQQKPGKAPKFLIYGASSLQSGVPSRFSGSGSGTDFTLTISSLQPEDFATYYCQQSYSTPPWTFGQGTKVEIK; 9.3

I would be grateful if you could share the reported fold over background for PR200_00622 (antibody, V domains shown, also called IMM20253; PR200_00253) VH: QVQLVESGGGVVQPGRSLRLSCTASGFTFSTYGMHWVRQAPGKGLEWVAVISYDGSSKHYAESVKGRFTISRDNSNNTLYLQMNRLRAEDTAVYYCARDGQPPGWGNYFDYWGQGTLVTVAS VL: SYVLTQPPSVSVAPGKTARITCGGNGIGSKSVYWYQQKPGQAPEVVVYDDSDRPSGIPERFSGSNSGNTATLTISRVEAGDEADYYCQVWDSSSDPWVFGGGTKLTVL .
6.64
